test-context: buffer; pH 7.4; 200.0 µM
solubility kinetic for assorted compounds

>>> result_value("Cc1ccc2nc(N3CCOCC3)c(C=O)c(=O)n2c1")
"> 41 µg/mL"

The compound listed as Cc1onc(-c2c(Cl)cccc2Cl)c1/C(N)=N/OC(=O)N(C)C has a reported solubility kinetic of > 53.6 µg/mL

* * *

test-context: buffer; pH 7.4; 200.0 µM
Measured solubility kinetic by item

>>> result_value("CC1=NN(c2ccccc2)C(=O)C1/C=C1\\NC(=S)NC1=O (stereo not drawn)")
"> 45.1 µg/mL"

Documented solubility kinetic of COc1ccccc1OCCn1c(SCC(=O)O)nc2ccccc21 : > 53.8 µg/mL

Sample O=C(Nc1sc2c(c1C(=O)O)CCC2)C(=O)N1CCOCC1 ; solubility kinetic observed: > 48.7 µg/mL

* * *

test-context: buffer; pH 7.4; 200.0 µM
Parameter: solubility kinetic. Scope: all listed entries.

Reference set, count: 5
>>> result_value("CCOC(=O)/C(C#N)=C/C=C1/C=CC=CN1C")
"> 34.5 µg/mL"
>>> result_value("Cc1onc(-c2ccccc2Cl)c1C(=O)N1CC(C)CC(C)C1 (stereo unspecified)")
"> 49.9 µg/mL"
>>> result_value("Cc1cc(C)nc(/N=C(\\N)Nc2cccc(OCc3ccccc3)c2)n1")
"> 52.1 µg/mL"
>>> result_value("Cc1cnc(C(=O)OCC(=O)NC(C)c2ccccc2)cn1 (stereo unspecified)")
"> 44.9 µg/mL"
>>> result_value("O=[N+]([O-])c1ccc(O)c(CN2CCCCCC2)c1")
"> 37.5 µg/mL"

Turning now to a further compound:
Data point: CCN(C(=O)COC(=O)CCC(=O)c1cccs1)c1ccccc1 ; solubility kinetic = > 51.8 µg/mL

* * *

test-context: buffer; pH 7.4; 200.0 µM
Some molecules, each annotated with its measured solubility kinetic.
Write the answer as a number in µg/mL, unit excluded.

Solved entries:
>>> result_value("CC(=O)c1ccc(N/C=C/C(=O)c2ccc(Br)cc2)cc1")
0.8
>>> result_value("Cc1cnc(C(=O)NCCc2ccc(Cl)cc2)cn1")
36
>>> result_value("CC(=O)N1CCN(c2ccnc3cc(Cl)ccc23)CC1")
34.3

Consider Cc1ccc(OCc2ccc(-c3ccccc3)cc2)c([N+](=O)[O-])n1 . Its measured solubility kinetic is 0.4

Lab note: measured solubility kinetic of COC(=O)C1CN(C(=O)COc2ccccc2C)c2ccccc2O1 (stereo not given) was 48.8

Reported solubility kinetic of CCCCOC(=O)c1sc2nc(C)cc(C)c2c1N : 0.6

Please fill in: solubility kinetic reported for O=C1CC2(CCN(C(=O)c3ccc([N+](=O)[O-])cc3)CC2)Oc2ccccc21 = 3.2

solubility kinetic reported for this molecule O=C(Nc1ccc(CN2CCOCC2)cc1)c1cc(Cl)ccc1Cl : 50.1

The reported value for Cn1c(=O)c2c(nc(SCc3ccc(F)cc3)n2C)n(C)c1=O in terms of solubility kinetic is 2

Looking up Cc1cc(NC(=O)Cc2ccccc2[N+](=O)[O-])no1 , I see its solubility kinetic listed as 16.6

Reported solubility kinetic of COc1cc2[nH]c(=S)nc(NCc3cccnc3)c2cc1OC : 12.2

* * *

test-context: buffer; pH 7.4; 200.0 µM
Please mark t if the recorded solubility kinetic is equal to or greater than 10 µg/mL, and f if it falls below.

>>> class_label("Cc1ccccc1NC(=S)N/N=C/c1ccc(O)cc1O")
"t"
>>> class_label("C=C(C)COc1ccc(-c2ncncc2-c2ccccc2OC)c(O)c1")
"f"
>>> class_label("O=C1CC(C(=O)N2CCc3ccccc32)CN1c1ccccc1 (stereo not given)")
"f"
>>> class_label("C=CCN1C(=O)CSC1=Nc1ccc(C(=O)O)cc1")
"t"
>>> class_label("O=C(CNc1ccccc1F)Nc1cccc2ccccc12")
"t"

q: Check the entry C=CCN(CC=C)S(=O)(=O)c1ccc(NC(=S)NC(=O)C2CC2)cc1 : does solubility kinetic equal or exceed 10 µg/mL?
a: f

q: Hello, I need to know if Cc1ccc(S(=O)(=O)N2CCC(C)CC2)cc1 has measured solubility kinetic not below 10 µg/mL. Thanks!
a: t
